# Tested on: HACAT
# protocolSummary: qHTS assay to identify novel small-molecules to repurpose for Merkel cell carcinoma treatment (AID 1296009); also: nearly all actives have a fitted effect of over 60% in size
# conditionSummary: MCC and control cell lines, CellTiter-Glo viability, 72 h; at 44.8 µM (top of the series) unless noted
Records with an inconclusive call do not appear. The source made the active and inactive calls. Calls follow the shape of the dose curve; as a rule, active = well fitted inhibition curve with a large enough effect; inconclusive = small, poorly fitted or top-dose-only effect; inactive = flat fitted curve, though single readings scatter.
endpoint: outcome

For orientation, consider the following solved cases.
• C/C=C/C=C/C(O)=C1/C(=O)[C@]2(C)C(=O)[C@@](C)(O)[C@H]1[C@H]([C@@]1(C)OC(=O)C(C)=C1O)[C@H]2C(=O)CC/C=C/C = inactive [at 17.4 µM]
• COc1cc(/C=C/C(=O)OC[C@H]2O[C@@H](OC3OC=C(C(=O)O)C4C(O)CC(C)(O)C34)[C@H](O)[C@@H](O)[C@@H]2O)cc(OC)c1O (stereo not given in full) = inactive [at 17.4 µM]
• CC[C@@H](C)[C@H](N)C(=O)N1Cc2ccccc2C1 = inactive
• O=C(/C=C/c1ccc(O)cc1)O[C@H]1[C@H](OC2CCCCC2O)O[C@H](CO)[C@@H](O)[C@@H]1O (stereo not given in full) = inactive [at 17.4 µM]

// switching to the query compound
Tell me the measured outcome of N#CC1C(=O)N=C(c2cc(Cl)ccc2O)C=C1c1cc(OCc2ccccc2)cc(OCc2ccccc2)c1 (stereo not given) , please.
inactive

###

# Tested on: NIH3T3
# protocolSummary: Cytotoxic Profiling of Annotated Libraries Using Quantitative High-Throughput Screening (AID 1296008); also: nearly all actives have a fitted effect of over 60% in size
# conditionSummary: Five cell lines viability, CellTiter-Glo ATP luminescence, 48-72 h
Records with an inconclusive call do not appear. Calls of active or inactive are those of the source. The call rests on the fitted dose curve; in most records, active means well fitted inhibition curve with a large enough effect; inconclusive means small, poorly fitted or top-dose-only effect; inactive means flat fitted curve, though single readings scatter.
endpoint: outcome

For orientation, consider the following solved cases.
- C=C1C(O)CCC2(C)CC3(OC)OC(=O)C(C)=C3CC12 (stereo not given): inactive
- CC(C)(O)C1CC=C(C(=O)OC[C@H]2O[C@@H](OC(=O)C3=CCC(C(C)(C)O)CC3)[C@H](O)[C@@H](O)[C@@H]2O)CC1 (stereo not given in full): inactive
- CN1CCc2cc(Cl)c(O)cc2[C@@H](c2cccc3c2OCC3)C1: inactive
- C/C=C(\C)C(=O)OC[C@H]1O[C@@H](O[C@H]2[C@@H](O[C@H]3O[C@H](COC(=O)/C(C)=C/C)[C@@H](O)[C@H](O)[C@H]3O[C@@H]3O[C@H](COC(=O)/C(C)=C/C)[C@@H](O)[C@H](OC(=O)/C(C)=C/C)[C@H]3O)O[C@H](COC(=O)/C(C)=C/C)[C@@H](O)[C@@H]2O)[C@H](O)[C@@H](O)[C@@H]1O: inactive
- CC(C)=CCC[C@@](C)(O)[C@H]1CC[C@]2(C)[C@@H]1[C@H](O)CC1[C@@]3(C)CC[C@H](O[C@@H]4O[C@H](CO)[C@@H](O)[C@H](O)[C@H]4O[C@@H]4O[C@H](CO)[C@@H](O)[C@H](O)[C@H]4O)C(C)(C)[C@@H]3CC[C@]12C (stereo not given in full): inactive

Tell me the measured outcome of Cn1cc(Nc2cnccc2C(=O)O)c2cccnc21 , please.
inactive

Tell me the measured outcome of CSCC1OC(n2cnc3c(=O)[nH]cnc32)C(O)C1O (stereo not given) , please.
inactive

Tell me the measured outcome of COCc1c(O)c(C(=O)O)c(C)c2c1OC(=O)c1c(C)cc(O)c(CO)c1O2 , please.
inactive

###

# protocolSummary: Primary qHTS for inhibitors of nuclear receptor binding SET domain protein 2 (NSD2) in an isogenic RCH-ACV NSD2 p.E1099K mutant (9B) (AID 1645876); also: nearly all actives have a fitted effect of over 70% in size; as to activity change, negative = viability loss: % is scaled to controls: 0 for no effect and ±100 for the full control effect
# conditionSummary: RCH-ACV (leukaemia line) NSD2 E1099K (9B) viability, CellTiter-Glo, 72 h; series mostly up to 44.9 µM
Inconclusive results are not listed. The source made the active and inactive calls. Calls come from the whole dose curve; as a rule, active = well fitted inhibition curve with a large enough effect; inconclusive = small, poorly fitted or top-dose-only effect; inactive = flat fitted curve, though single readings scatter.
endpoint: activity change, negative = viability loss

* CC12CC34CC(O)C5C(CO)(CO)CC(=O)CC5(C)C3CC1C2C4 (configuration not stated) | inactive
* CC(=O)OC12CC(C)C(O)C1/C=C(/COC1OC(CO)C(O)C(O)C1O)CCC1C(/C=C(\C)C2=O)C1(C)C (configuration not stated) | inactive
* Cc1ccc(C)c(S(=O)(=O)n2cnc3ccccc32)c1 | inactive
* O=C(/C=C/c1ccc(O)c(O)c1)O[C@H]1[C@@H]2C=CO[C@@H](O[C@@H]3O[C@H](CO)[C@@H](O)[C@H](O)[C@H]3O)[C@@H]2[C@@]2(CO)O[C@@H]12 | inactive
* O=C(/C=C/c1ccc(O)cc1)OCC1OC(O)C(OC2OC(CO)C(O)C(O)C2O)C(O)C1O (configuration not stated) | inactive

Tell me the measured activity change, negative = viability loss of C=CC1(C)C=C2CC[C@H]3[C@@](C)(C(=O)O)CCC[C@]3(C)C2CC1 (some centres not stated) , please.
inactive

Tell me the measured activity change, negative = viability loss of CC(C)(O)C1CC=C(C(=O)OC[C@H]2O[C@@H](OC(=O)C3=CCC(C(C)(C)O)CC3)[C@H](O)[C@@H](O)[C@@H]2O)CC1 (some centres not stated) , please.
inactive

Tell me the measured activity change, negative = viability loss of C=C(CCO)C(=O)OCC1OCC(OC(=O)C(=C)CCO[C@@H]2O[C@H](CO)[C@@H](O)[C@H](O)[C@H]2O)C(O)C1O (some centres not stated) , please.
inactive

Tell me the measured activity change, negative = viability loss of CC(=O)OC[C@]12[C@@H](OC(=O)c3ccoc3)C[C@@H]3[C@@H](OC(C)=O)[C@]1(OC3(C)C)[C@@](C)(O)C[C@H](OC(=O)c1ccoc1)[C@@H]2OC(=O)c1ccoc1 , please.
inactive

Tell me the measured activity change, negative = viability loss of C/C=C/C(=O)OC1/C=C/C(O)C(OC(C)=O)CCC(=O)OC1C (configuration not stated) , please.
inactive

Tell me the measured activity change, negative = viability loss of COC1OC(OC)C(O)(CCC2(C)C(C)CCC3(C)C2CC(O)C(O)C32CO2)C1O (configuration not stated) , please.
inactive

Tell me the measured activity change, negative = viability loss of C=C(C)[C@@H]1CC[C@]2(CO)CC[C@]3(C)[C@H](CC[C@@H]4[C@@]5(C)CC[C@H](O)C(C)(C)[C@@H]5CC[C@]43C)[C@@H]12 , please.
inactive

Tell me the measured activity change, negative = viability loss of C[C@]1(OC(=O)/C=C\c2ccc(O)cc2)C[C@@H](O)[C@]2(O)C=CO[C@@H](O[C@@H]3O[C@H](CO)[C@@H](O)[C@H](O)[C@H]3O)C12 (some centres not stated) , please.
inactive

###

# System: CRL-7250
# protocolSummary: Cytotoxic Profiling of Annotated Libraries Using Quantitative High-Throughput Screening (AID 1296008); also: nearly all actives have a fitted effect of over 60% in size
# conditionSummary: Five cell lines viability, CellTiter-Glo ATP luminescence, 48-72 h
Records with an inconclusive call do not appear. Calls of active or inactive are those of the source. The call rests on the fitted dose curve; in most records, active means well fitted inhibition curve with a large enough effect; inconclusive means small, poorly fitted or top-dose-only effect; inactive means flat fitted curve, though single readings scatter.
endpoint: outcome

For orientation, consider the following solved cases.
• COC(=O)C1=COC(OC2OC(CO)C(O)C(O)C2O)C2C(COC(=O)/C=C/c3ccc(O)c(O)c3)C(O)C(O)C12 (centres undefined) = inactive
• Cc1ccc([C@@H]2CC=C(C(=O)O)[C@H](c3ccc(C(C)(C)C)cc3)N2S(=O)(=O)c2ccc(C)cc2)cc1 = inactive
• C=C1CC/C=C(/CO)C(=O)C[C@@H]2[C@@H]1C[C@@]2(C)COC(C)=O = inactive
• CC1CCCCCCCc2cc(O)cc(O)c2C(=O)O1 (centres undefined) = inactive
• Cc1c(F)cc(C(=O)NC2CC2)cc1-c1ccc(C(=O)NCC(C)(C)C)cn1 = inactive

// switching to the query compound
Given the entry C/C=C(\C)C1C(C)=CC2CCC(OS(=O)(=O)O)C(C)C2C1/C=C/C=C/C(=O)O (centres undefined) , what outcome was observed with CRL-7250?
inactive

###

# System: HEK293
# protocolSummary: Cytotoxic Profiling of Annotated Libraries Using Quantitative High-Throughput Screening (AID 1296008); also: nearly all actives have a fitted effect of over 60% in size; as to max response: % is scaled to controls: 0 for no effect and ±100 for the full control effect
# conditionSummary: Five cell lines viability, CellTiter-Glo ATP luminescence, 48-72 h; stronger effect = lower value
Inconclusive results are not listed.
endpoint: max response (%)
// units = %; emit number, no label

For orientation, consider the following solved cases.
• CCC(C)C(=O)OC[C@H]1O[C@H](O[C@H]2O[C@H](CO)[C@@H](O)[C@H](O)[C@H]2O)[C@H](O)[C@@H](O)[C@@H]1O (stereo not given in full) = 0.11
• CC1(C)CC[C@]2(C(=O)O[C@@H]3O[C@H](CO[C@@H]4O[C@H](CO)[C@@H](O)[C@H](O)[C@H]4O)[C@@H](O)[C@H](O[C@@H]4O[C@H](CO)[C@@H](O)[C@H](O)[C@H]4O)[C@H]3O)CC[C@]3(C)C(=CCC4[C@@]5(C)CC[C@H](O[C@@H]6OC[C@@H](O)[C@H](O)[C@H]6O)[C@@](C)(C(=O)O)C5CC[C@]43C)[C@@H]2C1 (stereo not given in full) = -19.5
• C=C1C[C@]23C[C@@]1(O)CC[C@H]2[C@@]12C=C[C@H](O)[C@@](C)(C(=O)O1)[C@H]2[C@@H]3C(=O)O = -0.839
• CC(=O)O[C@@H](C[C@@H]1C=C(C)C(=O)O1)[C@H](C)[C@H]1CCC2[C@@]3(C)CC[C@H](O[C@@H]4O[C@H](CO)[C@@H](O)[C@H](O)[C@H]4O[C@@H]4O[C@@H](C)[C@H](O)[C@@H](O)[C@H]4O)C(C)(C)C3CC[C@@]2(C)[C@@]12COC(=O)C2 (stereo not given in full) = -15.8

Tell me the measured max response of O=C(O)CCc1cccc(O)c1O[C@@H]1O[C@H](CO)[C@@H](O)[C@H](O)[C@H]1O , please.
-3.2

Values from PubChem BioAssay (NCATS)
